Experiment: Elimination half life in neutropenic ICR mouse infected with methicillin-sensitive Staphylococcus aureus ATCC 29213 at 6.25 mg/kg, sc by HPLC
Assay type: ADME, organism-based
Set-up: dose 6.25 mg/kg, route subcutaneous
Conditions: in vivo, read-out: beta t1/2 (converted)
PROPERTY_LABEL: half-life (h)
Write the number in h without appending the unit.

Enquiry: Tell me half-life reported for CN(C)c1cc(NC(=O)CNC(C)(C)C)c(O)c2c1C[C@H]1C[C@H]3[C@H](N(C)C)C(O)=C(C(N)=O)C(=O)[C@@]3(O)C(O)=C1C2=O [TIGECYCLINE]
Return: 10.5

###

Experiment: Protein binding in methicillin-sensitive Staphylococcus aureus ATCC 29213-infected neutropenic ICR mouse serum at 6.25 mg/kg, sc by HPLC
Format: ADME, organism-based
Design: dose 6.25 mg/kg, route subcutaneous
Conditions: read-out: PB (converted)
PROPERTY_LABEL: fraction unbound
# respond with the number and nothing more

Enquiry: Return fraction unbound for the following compound: CN(C)c1cc(NC(=O)CNC(C)(C)C)c(O)c2c1C[C@H]1C[C@H]3[C@H](N(C)C)C(O)=C(C(N)=O)C(=O)[C@@]3(O)C(O)=C1C2=O
Return: 0.188

###

Experiment: AUC (0 to 24 hrs) in neutropenic ICR mouse infected with Staphylococcus aureus ATCC 29213 at 6.25 mg/kg, sc by HPLC
Format: ADME, organism-based
Design: time < 24 hr, dose 6.25 mg/kg, route subcutaneous
Conditions: plasma
PROPERTY_LABEL: AUC(0-t) at 24 h
The reply should read as a number followed by its unit.

Enquiry: Identify measured AUC(0-t) at 24 h corresponding to CN(C)c1cc(NC(=O)CNC(C)(C)C)c(O)c2c1C[C@H]1C[C@H]3[C@H](N(C)C)C(O)=C(C(N)=O)C(=O)[C@@]3(O)C(O)=C1C2=O
Return: 4800 ng·h/mL

###

Assay: Cmax in neutropenic ICR mouse infected with Staphylococcus aureus ATCC 29213 at 50 mg/kg, sc by HPLC
Format: ADME, organism-based
Design: dose 50 mg/kg, route subcutaneous
Conditions: in vivo
PROPERTY_LABEL: Cmax (ng/mL)
Answer in ng/mL, number only, no unit symbol.

Enquiry: Report measured Cmax; entry is CN(C)c1cc(NC(=O)CNC(C)(C)C)c(O)c2c1C[C@H]1C[C@H]3[C@H](N(C)C)C(O)=C(C(N)=O)C(=O)[C@@]3(O)C(O)=C1C2=O
Return: 12200

###

Experiment: AUC (0 to 24 hrs) in neutropenic ICR mouse infected with Staphylococcus aureus ATCC 29213 at 50 mg/kg, sc by HPLC
Assay type: ADME, organism-based
Design: time < 24 hr, dose 50 mg/kg, route subcutaneous
Details: plasma
PROPERTY_LABEL: AUC(0-t) at 24 h (ng·h/mL)
Answer in ng·h/mL, number only, no unit symbol.

Enquiry: Give the reported AUC(0-t) at 24 h for this compound. CN(C)c1cc(NC(=O)CNC(C)(C)C)c(O)c2c1C[C@H]1C[C@H]3[C@H](N(C)C)C(O)=C(C(N)=O)C(=O)[C@@]3(O)C(O)=C1C2=O [TIGECYCLINE]
Return: 49200

###

Experiment: Cmax in neutropenic ICR mouse infected with Staphylococcus aureus ATCC 29213 at 12.5 mg/kg, sc by HPLC
Format: ADME, organism-based
Set-up: dose 12.5 mg/kg, route subcutaneous
Conditions: in vivo
PROPERTY_LABEL: Cmax (ng/mL)
Please reply with the bare figure in ng/mL and do not write the unit itself.

Enquiry: In one line, give reported Cmax of the entry CN(C)c1cc(NC(=O)CNC(C)(C)C)c(O)c2c1C[C@H]1C[C@H]3[C@H](N(C)C)C(O)=C(C(N)=O)C(=O)[C@@]3(O)C(O)=C1C2=O .
Return: 2380

###

Assay: Protein binding in methicillin-sensitive Staphylococcus aureus ATCC 29213-infected neutropenic ICR mouse serum at 25 mg/kg, sc by HPLC
Format: ADME, organism-based
Parameters: dose 25 mg/kg, route subcutaneous
Details: read-out: PB (converted)
PROPERTY_LABEL: fraction unbound
Just the number, please, no unit after it.

Enquiry: For the molecule CN(C)c1cc(NC(=O)CNC(C)(C)C)c(O)c2c1C[C@H]1C[C@H]3[C@H](N(C)C)C(O)=C(C(N)=O)C(=O)[C@@]3(O)C(O)=C1C2=O , give its measured fraction unbound value.
Return: 0.075
